Source: ChEMBL document CHEMBL4483862

# Tested on: Plasmodium berghei
# assay procedure: Luciferase/luciferin-expressing antifolate-resistant parasites were used to infect a culture of HepG2 cells that were pre-incubated with compounds. Infected hepatocytes emit light due to the luciferase reaction. Assay results are presented as the percent inhibition of light emission compared to control. […]
# Format: functional
# experimental conditions: sporozoite, HEPG2TOX_HILL_SLOPE 11.4, HEPG2TOX_R_SQUARED 0.805, PBLUC_HILL_SLOPE 13.2, 4.09, PBLUC_R_SQUARED 0.263, 0.797, read-out: LUCIFERASE INFECTION ASSAY - IC50
measured property: IC50

- Clc1ccc2c(NC3CCN(Cc4ccccc4)CC3)ccnc2c1: 5.96 µM
